Reference for the values: paper PMC5261807

For each record, write down the corresponding binding score.
# assay target: T1, Bdf1 bromodomain 2 (GST-tagged, WT) (Saccharomyces cerevisiae (strain ATCC …, UniProt P35817))
# T1 chain: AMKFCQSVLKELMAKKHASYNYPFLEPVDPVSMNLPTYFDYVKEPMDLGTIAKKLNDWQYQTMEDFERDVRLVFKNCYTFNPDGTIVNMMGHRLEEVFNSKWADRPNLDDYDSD
# assay explanation: histone peptide array probed with recombinant GST-bromodomain, signal normalised to myc peptide control
Non-standard residues stand in square brackets, D forms with d. No end group written: not given here. Arg(Me2a) = CN(C)C(=N)NCCC[C@H](N)C(=O)O; Lys(Me2) = CN(C)CCCC[C@H](N)C(=O)O
One number for each entry.

Batch request: binding score per item, same order as input.
1. SGRGKQGGKARAK(Ac)AKSRSS [H2a 1-19]
2. ARTKQTARKSTGGKAPRKQ (A R T Kme3 Q T A Rme2a Kac S T G G K A P R K Q)
3. PRKQLATKAA[Arg(Me2a)][Lys(Me2)]SAPATGG

Marked response:
1: 0.0115; 2: 0.0127; 3: 0
